Sequence of the target: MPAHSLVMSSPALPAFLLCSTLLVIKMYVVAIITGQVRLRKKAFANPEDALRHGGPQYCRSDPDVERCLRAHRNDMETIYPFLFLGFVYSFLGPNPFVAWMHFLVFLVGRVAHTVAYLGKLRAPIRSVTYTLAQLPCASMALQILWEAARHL
Where a name gives a salt, the structure may show the parent alone.
endpoint-name: IC50 (µM)
Answers are plain numbers, in µM.

Worked cases, IC50 given:
- compound: "CC(C)Oc1ccc(-n2c(CC(=O)O)cc3cc(Oc4ccc(Cl)cc4)ccc32)cc1"
  endpoint-name: "IC50"
  unit-abbreviation: "µM"
  reported-measurement: 3.2
- compound: "CC(C)Oc1ccc(-n2c(C(=O)O)c(CN(C)C)c3cc(-c4ccc(C(C)(C)C)cc4)ccc32)cc1"
  endpoint-name: "IC50"
  unit-abbreviation: "µM"
  reported-measurement: 0.56
- compound: "CC(C)Oc1ccc(-n2c(C(=O)O)c(CNC(CO)CO)c3cc(-c4ccc(C(F)(F)F)cn4)ccc32)cc1 [Example 9, dihydrochloride]"
  endpoint-name: "IC50"
  unit-abbreviation: "µM"
  reported-measurement: 2.1

Proceed to the following item.
Exercise: Given CC(C)(C)c1ccc(-c2ccc3c(c2)cc(CCC(=O)O)n3-c2ccc(OC3CCCC3)cc2)cc1 , state its recorded IC50.
Solution: 0.78
